Assay: In vivo radioactivity biodistribution experiment in normal mice (Example 1, Table 13)
Parameters: species or system ddY mice
Conditions: pancreas, 2 min after injection
quantity: Biodistribution of radioactivity, Pancreas

compound	result
CN(C)c1ccc(/C=C2\Oc3ccc([125I])cc3C2=O)cc1 [[^125I]7]	3.17 (0.68) % injected dose per gram
COc1ccc(/C=C2\Oc3ccc([125I])cc3C2=O)cc1 [[^125I]17]	2.83 (0.75) % injected dose per gram
O=C1/C(=C/c2ccc(O)cc2)Oc2ccc([125I])cc21 [[^125I]20]	5.28 (0.99) % injected dose per gram
Nc1ccc(/C=C2\Oc3ccc([125I])cc3C2=O)cc1 [[^125I]14]	4.96 (0.44) % injected dose per gram
CNc1ccc(/C=C2\Oc3ccc([125I])cc3C2=O)cc1 [[^125I]12]	4.83 (0.60) % injected dose per gram

###

Assay: In vivo radioactivity biodistribution experiment in normal mice (Example 1, Table 13)
Set-up: species or system ddY mice
Conditions: blood, 2 min after injection
Quick list: Biodistribution of radioactivity, Blood per entry.

compound	Biodistribution of radioactivity, Blood
Nc1ccc(/C=C2\Oc3ccc([125I])cc3C2=O)cc1 [[^125I]14]	3.64 (0.78) % injected dose per gram
O=C1/C(=C/c2ccc(O)cc2)Oc2ccc([125I])cc21 [[^125I]20]	3.14 (0.73) % injected dose per gram
COc1ccc(/C=C2\Oc3ccc([125I])cc3C2=O)cc1 [[^125I]17]	3.16 (0.82) % injected dose per gram
CN(C)c1ccc(/C=C2\Oc3ccc([125I])cc3C2=O)cc1 [[^125I]7]	2.69 (0.29) % injected dose per gram
CNc1ccc(/C=C2\Oc3ccc([125I])cc3C2=O)cc1 [[^125I]12]	4.16 (0.98) % injected dose per gram

###

Test: In vivo radioactivity biodistribution experiment in normal mice (Example 1, Table 13)
Design: species or system ddY mice
Conditions: intestine, 60 min after injection
quantity: Biodistribution of radioactivity, Intestine

molecule	result
CNc1ccc(/C=C2\Oc3ccc([125I])cc3C2=O)cc1 [[^125I]12]	14.04 (2.87) % injected dose per gram
COc1ccc(/C=C2\Oc3ccc([125I])cc3C2=O)cc1 [[^125I]17]	9.02 (3.14) % injected dose per gram
CN(C)c1ccc(/C=C2\Oc3ccc([125I])cc3C2=O)cc1 [[^125I]7]	11.85 (2.70) % injected dose per gram
O=C1/C(=C/c2ccc(O)cc2)Oc2ccc([125I])cc21 [[^125I]20]	14.87 (5.42) % injected dose per gram
Nc1ccc(/C=C2\Oc3ccc([125I])cc3C2=O)cc1 [[^125I]14]	18.30 (7.21) % injected dose per gram

###

Quick list: Biodistribution of radioactivity, Lung per entry.
Assay: In vivo radioactivity biodistribution experiment in normal mice (Example 1, Table 13)
Design: species or system ddY mice
Settings: lung, 10 min after injection
quantity: Biodistribution of radioactivity, Lung

compound	quantity	result
Nc1ccc(/C=C2\Oc3ccc([125I])cc3C2=O)cc1 [[^125I]14]	Biodistribution of radioactivity, Lung	7.01 (0.28) % injected dose per gram
CNc1ccc(/C=C2\Oc3ccc([125I])cc3C2=O)cc1 [[^125I]12]	Biodistribution of radioactivity, Lung	4.44 (0.39) % injected dose per gram
COc1ccc(/C=C2\Oc3ccc([125I])cc3C2=O)cc1 [[^125I]17]	Biodistribution of radioactivity, Lung	1.76 (0.29) % injected dose per gram
O=C1/C(=C/c2ccc(O)cc2)Oc2ccc([125I])cc21 [[^125I]20]	Biodistribution of radioactivity, Lung	3.14 (0.23) % injected dose per gram
CN(C)c1ccc(/C=C2\Oc3ccc([125I])cc3C2=O)cc1 [[^125I]7]	Biodistribution of radioactivity, Lung	2.44 (0.54) % injected dose per gram

###

Quick list: Biodistribution of radioactivity, Kidney per entry.
Test: In vivo radioactivity biodistribution experiment in normal mice (Example 1, Table 13)
Design: species or system ddY mice
Details: kidney, 10 min after injection

compound	Biodistribution of radioactivity, Kidney
O=C1/C(=C/c2ccc(O)cc2)Oc2ccc([125I])cc21 [[^125I]20]	11.22 (2.26) % injected dose per gram
CN(C)c1ccc(/C=C2\Oc3ccc([125I])cc3C2=O)cc1 [[^125I]7]	8.31 (3.19) % injected dose per gram
CNc1ccc(/C=C2\Oc3ccc([125I])cc3C2=O)cc1 [[^125I]12]	11.44 (2.76) % injected dose per gram
COc1ccc(/C=C2\Oc3ccc([125I])cc3C2=O)cc1 [[^125I]17]	7.00 (1.49) % injected dose per gram
Nc1ccc(/C=C2\Oc3ccc([125I])cc3C2=O)cc1 [[^125I]14]	13.12 (4.30) % injected dose per gram

###

Quick list: Biodistribution of radioactivity, Heart per entry.
Assay: In vivo radioactivity biodistribution experiment in normal mice (Example 1, Table 13)
Parameters: species or system ddY mice
Conditions: heart, 2 min after injection
Experimental: ^125I-labeled compounds were diluted with 10% ethanol-containing physiological saline. […] After their blood was collected, organs were removed, and the weights and radioactivities thereof were measured. When any of the aurone derivatives was used, sufficient radioactivity to perform imaging of intracerebral amyloid migrated to the brain from the early stage of injection (1.7-4.6% ID/g). […]
quantity: Biodistribution of radioactivity, Heart

compound	result
O=C1/C(=C/c2ccc(O)cc2)Oc2ccc([125I])cc21 [[^125I]20]	6.23 (0.63) % injected dose per gram
CNc1ccc(/C=C2\Oc3ccc([125I])cc3C2=O)cc1 [[^125I]12]	5.07 (0.47) % injected dose per gram
Nc1ccc(/C=C2\Oc3ccc([125I])cc3C2=O)cc1 [[^125I]14]	6.77 (0.74) % injected dose per gram
CN(C)c1ccc(/C=C2\Oc3ccc([125I])cc3C2=O)cc1 [[^125I]7]	3.80 (0.66) % injected dose per gram
COc1ccc(/C=C2\Oc3ccc([125I])cc3C2=O)cc1 [[^125I]17]	3.84 (1.04) % injected dose per gram

###

Quick list: Biodistribution of radioactivity, Heart per entry.
Assay: In vivo radioactivity biodistribution experiment in normal mice (Example 1, Table 13)
Parameters: species or system ddY mice
Settings: heart, 60 min after injection
Procedure: ^125I-labeled compounds were diluted with 10% ethanol-containing physiological saline. […] After their blood was collected, organs were removed, and the weights and radioactivities thereof were measured. When any of the aurone derivatives was used, sufficient radioactivity to perform imaging of intracerebral amyloid migrated to the brain from the early stage of injection (1.7-4.6% ID/g). […]

molecule	Biodistribution of radioactivity, Heart
Nc1ccc(/C=C2\Oc3ccc([125I])cc3C2=O)cc1 [[^125I]14]	0.98 (0.25) % injected dose per gram
CN(C)c1ccc(/C=C2\Oc3ccc([125I])cc3C2=O)cc1 [[^125I]7]	0.45 (0.11) % injected dose per gram
COc1ccc(/C=C2\Oc3ccc([125I])cc3C2=O)cc1 [[^125I]17]	0.25 (0.12) % injected dose per gram
CNc1ccc(/C=C2\Oc3ccc([125I])cc3C2=O)cc1 [[^125I]12]	0.84 (0.37) % injected dose per gram
O=C1/C(=C/c2ccc(O)cc2)Oc2ccc([125I])cc21 [[^125I]20]	0.42 (0.09) % injected dose per gram

###

Test: In vivo radioactivity biodistribution experiment in normal mice (Example 1, Table 13)
Set-up: species or system ddY mice
Conditions: stomach, 60 min after injection
Method: ^125I-labeled compounds were diluted with 10% ethanol-containing physiological saline. […] After their blood was collected, organs were removed, and the weights and radioactivities thereof were measured. When any of the aurone derivatives was used, sufficient radioactivity to perform imaging of intracerebral amyloid migrated to the brain from the early stage of injection (1.7-4.6% ID/g). […]
quantity: Biodistribution of radioactivity, Stomach

compound	result
COc1ccc(/C=C2\Oc3ccc([125I])cc3C2=O)cc1 [[^125I]17]	0.96 (0.46) % injected dose per organ
CNc1ccc(/C=C2\Oc3ccc([125I])cc3C2=O)cc1 [[^125I]12]	2.26 (0.88) % injected dose per organ
Nc1ccc(/C=C2\Oc3ccc([125I])cc3C2=O)cc1 [[^125I]14]	3.49 (2.00) % injected dose per organ
O=C1/C(=C/c2ccc(O)cc2)Oc2ccc([125I])cc21 [[^125I]20]	2.26 (0.88) % injected dose per organ
CN(C)c1ccc(/C=C2\Oc3ccc([125I])cc3C2=O)cc1 [[^125I]7]	1.51 (1.04) % injected dose per organ

###

Test: In vivo radioactivity biodistribution experiment in normal mice (Example 1, Table 13)
Set-up: species or system ddY mice
Conditions: pancreas, 60 min after injection
quantity: Biodistribution of radioactivity, Pancreas

molecule	result
CN(C)c1ccc(/C=C2\Oc3ccc([125I])cc3C2=O)cc1 [[^125I]7]	0.30 (0.06) % injected dose per gram
COc1ccc(/C=C2\Oc3ccc([125I])cc3C2=O)cc1 [[^125I]17]	0.16 (0.05) % injected dose per gram
O=C1/C(=C/c2ccc(O)cc2)Oc2ccc([125I])cc21 [[^125I]20]	0.36 (0.09) % injected dose per gram
CNc1ccc(/C=C2\Oc3ccc([125I])cc3C2=O)cc1 [[^125I]12]	0.77 (0.28) % injected dose per gram
Nc1ccc(/C=C2\Oc3ccc([125I])cc3C2=O)cc1 [[^125I]14]	0.87 (0.30) % injected dose per gram
